molecular target: EGFR (D746-750/C797S) (Homo sapiens, UniProt P00533, C797S/DEL746-750); test: HotSpot radiometric kinase assay, inhibition of EGFR 746-750/C797S mutant; conditions: 33P ATP, room temperature, 120 m
Sequence (P00533 with tags, fused parts or gaps DEL746-750/C797S): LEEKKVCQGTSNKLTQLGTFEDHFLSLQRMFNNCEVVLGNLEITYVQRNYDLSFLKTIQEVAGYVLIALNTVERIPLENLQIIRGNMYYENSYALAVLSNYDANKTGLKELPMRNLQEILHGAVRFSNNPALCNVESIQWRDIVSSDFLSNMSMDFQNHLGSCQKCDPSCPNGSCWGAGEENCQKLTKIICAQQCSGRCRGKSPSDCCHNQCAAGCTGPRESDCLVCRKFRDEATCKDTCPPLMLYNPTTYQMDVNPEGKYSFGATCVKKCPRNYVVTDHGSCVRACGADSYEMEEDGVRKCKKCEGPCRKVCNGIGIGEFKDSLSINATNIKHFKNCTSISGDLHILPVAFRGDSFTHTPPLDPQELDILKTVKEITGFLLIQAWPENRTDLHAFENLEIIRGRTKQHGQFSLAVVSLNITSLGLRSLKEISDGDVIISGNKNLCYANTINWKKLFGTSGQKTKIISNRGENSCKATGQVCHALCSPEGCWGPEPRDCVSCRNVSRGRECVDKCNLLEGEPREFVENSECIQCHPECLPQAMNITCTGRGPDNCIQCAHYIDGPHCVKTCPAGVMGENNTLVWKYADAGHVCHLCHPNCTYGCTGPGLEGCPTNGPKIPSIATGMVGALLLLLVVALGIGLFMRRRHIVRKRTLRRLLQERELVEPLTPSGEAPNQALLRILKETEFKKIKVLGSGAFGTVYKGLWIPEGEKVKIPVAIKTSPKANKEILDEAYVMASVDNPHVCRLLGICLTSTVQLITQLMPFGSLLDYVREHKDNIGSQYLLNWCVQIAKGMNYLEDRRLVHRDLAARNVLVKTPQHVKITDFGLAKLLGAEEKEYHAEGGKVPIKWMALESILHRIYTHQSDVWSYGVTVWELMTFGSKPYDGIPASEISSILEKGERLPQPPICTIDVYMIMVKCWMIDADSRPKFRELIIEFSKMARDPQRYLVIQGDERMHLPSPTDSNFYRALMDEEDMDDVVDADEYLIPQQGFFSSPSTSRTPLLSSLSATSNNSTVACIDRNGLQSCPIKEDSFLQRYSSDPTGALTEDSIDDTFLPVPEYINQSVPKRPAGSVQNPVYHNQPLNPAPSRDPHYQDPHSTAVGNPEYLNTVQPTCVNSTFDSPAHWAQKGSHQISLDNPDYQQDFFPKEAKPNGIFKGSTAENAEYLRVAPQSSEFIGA
pIC50: −log10 of the molar value.
endpoint label: pIC50

Here's what some known entries look like.
smiles notation	endpoint label	experimental result
CCOc1nn(CCO)c2c1/C=C/c1n[nH]c3cnc(cc13)-c1cnn(C)c1OC[C@H](C)N(CC)C2	pIC50	9.13
CCOc1nn(CCO)c2c1/C=C/c1n[nH]c3cnc(cc13)-c1c(C)nn(C)c1O[C@H](C)CN(CC)C2	pIC50	9.00

1. Cc1nn(C)c2c1-c1cc3c(n[nH]c3cn1)/C=C/c1c(OCC#N)nn(CCO)c1CN(C)C[C@H](C)O2
2. CCOc1nn(CCO)c2c1/C=C/c1n[nH]c3cnc(cc13)-c1c(C)nn(C)c1OC[C@H](C)N(C(C)C)C2
Sorting by pIC50 in descending order, would 1 or 2 appear first? Record your answer as the label of the chosen record.
2
